Taken from ChEMBL document CHEMBL4622945.

test system: SK-BR-3; assay: Antiproliferative activity against human SKBR3 cells assessed as reduction in cell growth by SRB assay; assay type: functional, cell-based
Square brackets hold non-standard residues; d marks the D form. Peptide text beside a SMILES is read from it. * marks the point of attachment. NH((S)CH(Me)CH2NHC2H4OH) = C[C@@H](CNCCO)N*; NH((S)CH(Me)CH2NMe2) = C[C@@H](CN(C)C)N*; Gly(octyl) = CCCCCCCC[C@H](N)C(=O)O; X5 = C[C@@H](N*)[C@@H](O)c1ccccc1; Cha = N[C@@H](CC1CCCCC1)C(=O)O; Octanoyl = CCCCCCCC(=O)*; NHCH2CH2NHMe = CNCCN*; Aib = CC(C)(N)C(=O)O; Butyryl = CCCC(=O)*; NHCH2CH2OH = OCCN*; βAla = NCCC(=O)O; X4 = OCCNCCN*
Recorded measurements of IC50, one per entry
value-kind: IC50 (nM)

• CCCCCCCC[C@H](NC(=O)C(C)(C)NC(=O)C(C)(C)NC(=O)[C@H](CC1CCCCC1)NC(=O)[C@@H]1CCCN1C(=O)CCCCCCC)C(=O)N[C@@H](CC(C)C)C(=O)NC(C)(C)C(=O)N[C@@H](CC(C)C)C(=O)NCCC(=O)N[C@@H](C)CNCCO (Octanoyl-P[Cha][Aib][Aib][Gly(octyl)]L[Aib]L[βAla]-{NH((S)CH(Me)CH2NHC2H4OH)}) = 15
• CCCCCCCC[C@H](NC(=O)C(C)(C)NC(=O)C(C)(C)NC(=O)[C@H](CC1CCCCC1)NC(=O)[C@@H]1CCCN1C(=O)CCC)C(=O)N[C@@H](CC(C)C)C(=O)NC(C)(C)C(=O)N[C@@H](CC(C)C)C(=O)NCCC(=O)NCCNC (Butyryl-P[Cha][Aib][Aib][Gly(octyl)]L[Aib]L[βAla]-NHCH2CH2NHMe) = 27
• CCCCCCCC[C@H](NC(=O)C(C)(C)NC(=O)C(C)(C)NC(=O)[C@H](CC1CCCCC1)NC(=O)[C@@H]1CCCN1C(=O)CCC)C(=O)N[C@@H](CC(C)C)C(=O)NC(C)(C)C(=O)N[C@@H](CC(C)C)C(=O)NCCC(=O)NCCNCCO (Butyryl-P[Cha][Aib][Aib][Gly(octyl)]L[Aib]L[βAla]-X4) = 67
• CCCCCCCC[C@H](NC(=O)C(C)(C)NC(=O)C(C)(C)NC(=O)[C@H](CC1CCCCC1)NC(=O)[C@@H]1CCCN1C(=O)CCC)C(=O)N[C@@H](CC(C)C)C(=O)NC(C)(C)C(=O)N[C@@H](CC(C)C)C(=O)NCCC(=O)N[C@@H](C)CN(C)C (Butyryl-P[Cha][Aib][Aib][Gly(octyl)]L[Aib]L[βAla]-{NH((S)CH(Me)CH2NMe2)}) = 10
• CCCCCCCC[C@H](NC(=O)C(C)(C)NC(=O)C(C)(C)NC(=O)[C@H](CC1CCCCC1)NC(=O)[C@@H]1CCCN1C(=O)CCC)C(=O)N[C@@H](CC(C)C)C(=O)NC(C)(C)C(=O)N[C@@H](CC(C)C)C(=O)NCCC(=O)N[C@H](C)[C@@H](O)c1ccccc1 (Butyryl-P[Cha][Aib][Aib][Gly(octyl)]L[Aib]L[βAla]-X5) = 344
• CCCCCCCC[C@H](NC(=O)C(C)(C)NC(=O)C(C)(C)NC(=O)[C@H](CC1CCCCC1)NC(=O)[C@@H]1CCCN1C(=O)CCC)C(=O)N[C@@H](CC(C)C)C(=O)NC(C)(C)C(=O)N[C@@H](CC(C)C)C(=O)NCCC(=O)NCCO (Butyryl-P[Cha][Aib][Aib][Gly(octyl)]L[Aib]L[βAla]-NHCH2CH2OH) = 512

----------
tested on: SK-BR-3; assay: Antiproliferative activity against human SKBR3 cells assessed as reduction in cell growth by SRB assay; format: functional, cell-based
Square brackets hold non-standard residues; d marks the D form. Peptide text beside a SMILES is read from it. * marks the point of attachment. NH((S)CH(Me)CH2NHC2H4OH) = C[C@@H](CNCCO)N*; Gly(octyl) = CCCCCCCC[C@H](N)C(=O)O; Cha = N[C@@H](CC1CCCCC1)C(=O)O; Phe(ol) = N[C@H](CO)Cc1ccccc1; Pip = O=C(O)[C@@H]1CCCCN1; Aib = CC(C)(N)C(=O)O; Butyryl = CCCC(=O)*; βAla = NCCC(=O)O
value-kind: IC50 (nM)

- CCCCCCCC[C@H](NC(=O)C(C)(C)NC(=O)C(C)(C)NC(=O)[C@H](CC1CCCCC1)NC(=O)[C@@H]1CCCN1C(=O)CCC)C(=O)N[C@@H](CC(C)C)C(=O)NC(C)(C)C(=O)N[C@@H](CC(C)C)C(=O)NCCC(=O)N[C@H](CO)Cc1ccccc1 (Butyryl-P[Cha][Aib][Aib][Gly(octyl)]L[Aib]L[βAla][Phe(ol)]): 178
- CCCCCCCC[C@H](NC(=O)C(C)(C)NC(=O)C(C)(C)NC(=O)[C@H](CC1CCCCC1)NC(=O)[C@@H]1CCCN1)C(=O)N[C@@H](CC(C)C)C(=O)NC(C)(C)C(=O)N[C@@H](CC(C)C)C(=O)NCCC(=O)N[C@@H](C)CNCCO (H-P[Cha][Aib][Aib][Gly(octyl)]L[Aib]L[βAla]-{NH((S)CH(Me)CH2NHC2H4OH)}): 57
- CCCCCCCC[C@H](NC(=O)C(C)(C)NC(=O)C(C)(C)NC(=O)[C@H](CC1CCCCC1)NC(=O)[C@@H]1CCCCN1C(=O)CCC)C(=O)N[C@@H](CC(C)C)C(=O)NC(C)(C)C(=O)N[C@@H](CC(C)C)C(=O)NCCC(=O)N[C@@H](C)CNCCO (Butyryl-[Pip][Cha][Aib][Aib][Gly(octyl)]L[Aib]L[βAla]-{NH((S)CH(Me)CH2NHC2H4OH)}): 34

----------
tested on: SK-BR-3; assay: Antiproliferative activity against human SKBR3 cells assessed as reduction in cell growth by SRB assay; assay type: functional, cell-based
Square brackets hold non-standard residues; d marks the D form. Peptide text beside a SMILES is read from it. * marks the point of attachment. NH((S)CH(Me)CH2NHC2H4OH) = C[C@@H](CNCCO)N*; Gly(octyl) = CCCCCCCC[C@H](N)C(=O)O; Cha = N[C@@H](CC1CCCCC1)C(=O)O; Aib = CC(C)(N)C(=O)O; X3 = C[C@H](CNCCO)N*; Butyryl = CCCC(=O)*; βAla = NCCC(=O)O
# IC50 listing for each entry below
value-kind: IC50 (nM)

- CCCCCCCC[C@H](NC(=O)C(C)(C)NC(=O)C(C)(C)NC(=O)[C@H](CC1CCCCC1)NC(=O)[C@@H]1CCCN1C(=O)CCC)C(=O)N[C@@H](CC(C)C)C(=O)NC(C)(C)C(=O)N[C@@H](CC(C)C)C(=O)NCCC(=O)N[C@H](C)CNCCO (Butyryl-P[Cha][Aib][Aib][Gly(octyl)]L[Aib]L[βAla]-X3): 205
- CCCCCCCC[C@H](NC(=O)C(C)(C)NC(=O)C(C)(C)NC(=O)[C@H](CC1CCCCC1)NC(=O)[C@H](C)NC(=O)CCC)C(=O)N[C@@H](CC(C)C)C(=O)NC(C)(C)C(=O)N[C@@H](CC(C)C)C(=O)NCCC(=O)N[C@@H](C)CNCCO (Butyryl-A[Cha][Aib][Aib][Gly(octyl)]L[Aib]L[βAla]-{NH((S)CH(Me)CH2NHC2H4OH)}): 10

----------
tested on: SK-BR-3; test: Antiproliferative activity against human SKBR3 cells assessed as reduction in cell growth by SRB assay; assay type: functional, cell-based
pIC50: −log10 of the molar value. Square brackets hold non-standard residues; d marks the D form. Peptide text beside a SMILES is read from it. * marks the point of attachment. NH((S)CH(Me)CH2NHC2H4OH) = C[C@@H](CNCCO)N*; NH((S)CH(CH3)CH2NHMe) = CNC[C@H](C)N*; Gly(octyl) = CCCCCCCC[C@H](N)C(=O)O; Cha = N[C@@H](CC1CCCCC1)C(=O)O; Lauroyl = CCCCCCCCCCCC(=O)*; X2 = C[C@@H](CN1CCOCC1)N*; Aib = CC(C)(N)C(=O)O; Butyryl = CCCC(=O)*; βAla = NCCC(=O)O
value-kind: pIC50

* CCCCCCCC[C@H](NC(=O)C(C)(C)NC(=O)C(C)(C)NC(=O)[C@H](CC1CCCCC1)NC(=O)[C@@H]1CCCN1C(=O)CCC)C(=O)N[C@@H](CC(C)C)C(=O)NC(C)(C)C(=O)N[C@@H](CC(C)C)C(=O)NCCC(=O)N[C@@H](C)CNC (Butyryl-P[Cha][Aib][Aib][Gly(octyl)]L[Aib]L[βAla]-{NH((S)CH(CH3)CH2NHMe)}) | 7.89
* CCCCCCCC[C@H](NC(=O)C(C)(C)NC(=O)C(C)(C)NC(=O)[C@H](CC1CCCCC1)NC(=O)[C@@H]1CCCN1C(=O)CCC)C(=O)N[C@@H](CC(C)C)C(=O)NC(C)(C)C(=O)N[C@@H](CC(C)C)C(=O)NCCC(=O)N[C@@H](C)CN1CCOCC1 (Butyryl-P[Cha][Aib][Aib][Gly(octyl)]L[Aib]L[βAla]-X2) | 7.00
* CCCCCCCCCCCC(=O)N1CCC[C@H]1C(=O)N[C@@H](CC1CCCCC1)C(=O)NC(C)(C)C(=O)NC(C)(C)C(=O)N[C@@H](CCCCCCCC)C(=O)N[C@@H](CC(C)C)C(=O)NC(C)(C)C(=O)N[C@@H](CC(C)C)C(=O)NCCC(=O)N[C@@H](C)CNCCO (Lauroyl-P[Cha][Aib][Aib][Gly(octyl)]L[Aib]L[βAla]-{NH((S)CH(Me)CH2NHC2H4OH)}) | 7.14
